Test: Quantitative High-Throughput drug screen in 47 multiple myeloma cell lines against the NCATS MIPE library collection: KMS12BM_JCRB cell viability assay (AID 1918971); further: potency means the concentration at half of the fitted maximal effect; nearly all actives have a fitted effect of over 35% in size
Conditions: KMS12BM myeloma viability, CellTiter-Glo ATP, 48 h; series mostly up to 45.8 µM
Records with an inconclusive call do not appear. Active and inactive are the calls of the source. The call rests on the fitted dose curve; in most records, active means well fitted cell-killing curve with a large enough effect; inconclusive means small, poorly fitted or top-dose-only effect, or effect the other way; inactive means no such curve, though single readings can be large or run the other way.
Below is a list of entries, each paired with its recorded Potency value.

See these solved cases before continuing.
compound | readout kind | assay result
CCOc1ccc(Nc2nc(-c3c(C)nc4ccccn34)cs2)cc1 | Potency | 0.0066 µM (active)
Nc1nc(F)nc2c1ncn2[C@@H]1O[C@H](COP(=O)(O)O)[C@@H](O)[C@H]1O | Potency | 16.6 µM (active)
COc1ccc(Cc2nccc3cc(OC)c(OC)cc23)cc1OC | Potency | 16.6 µM (active)
Oc1ccc(C2CCN(c3ccnc4ccccc34)CC2)cc1O | Potency | 16.6 µM (active)

Check the records and state Potency for Cc1ccccc1C(C(=O)NC1CCCCC1)N(C(=O)Cn1ccnc1C)c1cccc(F)c1 (stereo not given)
8.33 µM (active)

---

Assay: Quantitative High-Throughput drug screen in 47 multiple myeloma cell lines against the NCATS MIPE library collection: OCIMY1_PLB cell viability assay (AID 1918979); further: nearly all actives have a fitted effect of over 35% in size;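 on viability: 100% = DMSO-only wells and 0% = cell-free media-only wells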
Conditions: OCI-MY1 myeloma viability, CellTiter-Glo ATP, 48 h; series mostly up to 45.8 µM
Source text: PI: Beverly A. Mock Ph.D. Laboratory of Cancer Biology and Genetics, Center for Cancer Research, National Cancer Institute, National Institute of Health, Bethesda, Maryland […] 5; Detector; 425V; Luminescence; Viewlux PerkinElmer. […] 1. […] Briefly, the corresponding myeloma cell lines were screened in 1,536-well plates with 500 cells, 5-uL per well for inhibition of cell viability (assessed by measuring ATP levels with CellTiterGlo). […]
Inconclusive results are not listed. Activity calls are given as the source filed them. Calls come from the whole dose curve; as a rule, active = well fitted cell-killing curve with a large enough effect; inconclusive = small, poorly fitted or top-dose-only effect, or effect the other way; inactive = no such curve, though single readings can be large or run the other way.
Parameter call: string, one of 1 (yes) for active, 0 (no) for inactive

Record excerpt, results attached:
molecule | assigned category
COc1ccc(-c2coc3cc(O)cc(O)c3c2=O)cc1 | 0 (no)
NC(=O)[C@@H](CCC(F)(F)F)N(Cc1ccc(-c2ncon2)cc1F)S(=O)(=O)c1ccc(Cl)cc1 | 0 (no)
N#Cc1ccc(NC(=O)Nc2ccccc2Br)c2n[nH]nc12 | 0 (no)
COc1ccc(C2Sc3ccccc3N(CCN(C)C)C(=O)C2OC(C)=O)cc1 (stereo not given) | 0 (no)
O=C(Nc1ccccc1Br)N[C@@H]1CCN(c2ccc(C(F)(F)F)cn2)C1 | 0 (no)
CC(C)(C)C(=O)Oc1ccc2c(c1)nc(NC(=O)c1cccc([N+](=O)[O-])c1)n2CCCO | 0 (no)
Clc1ccc(C(c2ccc(Cl)cc2)n2cc[n+](CC(OCc3ccc(Cl)cc3Cl)c3ccc(Cl)cc3Cl)c2)cc1 (stereo not given) | 1 (yes)
CS(=O)(=O)N(Cc1ccco1)CC(O)Cn1c2ccccc2c2ccccc21 (stereo not given) | 0 (no)

Which result was noted for this molecule in the test: CS(=O)c1ccc(-c2nc(-c3ccc(F)cc3)c(-c3ccncc3)[nH]2)cc1 (stereo not given)
0 (no)

Which result was noted for this molecule in the test: `CC(=NNC(=S)N1CCC1)c1ccccn1`
1 (yes)

---

Test: qHTS of pediatric cancer cell lines to identify multiple opportunities for drug repurposing: Primary screen for MG 63 (6-TG R) cells (AID 1347105); further: nearly all actives have a fitted effect of over 50% in size
Details: MG 63 (6-TG R) viability, CellTiter-Glo, 48 h; series mostly up to 46 µM
Inconclusive results are not listed. The source made the active and inactive calls. The call rests on the fitted dose curve; in most records, active means well fitted cell-killing curve with a large enough effect; inconclusive means small, poorly fitted or top-dose-only effect; inactive means no such curve, though single readings can be large or run the other way.
Parameter call: string, one of y = active, n = inactive

Record excerpt, results attached:
compound | assigned category
CCOC(=O)C1=C(N)Oc2ccc(Br)cc2C1C(C#N)C(=O)OCC (configuration not stated) | n
C=CCc1ccc(O)c(-c2ccc(O)c(CC=C)c2)c1 | y

Which result was noted for this compound in the test: `CO[C@H]1C=CO[C@@]2(C)Oc3c(C)c(O)c4c(O)c(c5c(c4c3C2=O)NC2(CCN(CC(C)C)CC2)N=5)=NC(=O)C(C)=CC=C[C@H](C)[C@H](O)[C@@H](C)[C@@H](O)[C@@H](C)[C@H](OC(C)=O)[C@H]1C`
n

Which result was noted for this compound in the test: CN(C)CCC(c1ccccc1)c1ccccn1 (configuration not stated)
n

Which result was noted for this compound in the test: `CC[C@@H]1C=C(C)C[C@H](C)C[C@H](OC)[C@H]2O[C@@](O)(C(=O)C(=O)N3CCCC[C@@H]3C(=O)O[C@H](C(C)=C[C@@H]3CC[C@H](Cl)[C@H](OC)C3)[C@H](C)[C@@H](O)CC1=O)[C@H](C)C[C@H]2OC`
n

Which result was noted for this compound in the test: COc1ccc2cc(-c3nc(-c4ccc(S(C)=O)cc4)[nH]c3-c3ccncc3)ccc2c1 (configuration not stated)
n

Which result was noted for this compound in the test: COCCOC(=O)C1=C(C)NC2=C(C(=O)CC(c3ccccc3OC)C2)C1c1cccc(O)c1 (configuration not stated)
y

Which result was noted for this compound in the test: `O=C(O)C=Cc1ccc(O)c(O)c1`
n

Which result was noted for this compound in the test: `O=c1c(O)c(-c2ccc(O)cc2)oc2cc(O)cc(O)c12`
n

Which result was noted for this compound in the test: O=c1c(-c2ccc(O)cc2)coc2cc(OC3O[C@H](CO)[C@H](O)[C@H](O)[C@H]3O)cc(O)c12 (some centres not stated)
n

Which result was noted for this compound in the test: `O=C(Nc1c(Cl)cncc1Cl)c1ccc(OC(F)F)c(OCC2CC2)c1`
n

Which result was noted for this compound in the test: `N[C@H](CSC(c1ccccc1)(c1ccccc1)c1ccccc1)C(=O)O`
n

Which result was noted for this compound in the test: CNC1CCC(N(Cc2cccc(-c3ccncc3)c2)C(=O)c2sc3c(F)ccc(F)c3c2Cl)CC1 (configuration not stated)
y

Which result was noted for this compound in the test: `O=C(O)c1ccccc1C(=O)Nc1ccc(-c2ccccc2)cc1`
n

Which result was noted for this compound in the test: `O=C1NCC2(CCN(CCc3ccccc3)CC2)O1`
n

Which result was noted for this compound in the test: `O=C(O)Cc1cccc2ccccc12`
n

Which result was noted for this compound in the test: `Cn1cc(C=C2C(=O)Nc3cccnc32)c2ccccc21`
n

Which result was noted for this compound in the test: `O=c1ccn([C@@H]2O[C@H](CO)[C@H](O)[C@H]2O)c(=O)[nH]1`
n

Which result was noted for this compound in the test: `COc1ccc2c(Oc3ccc(NC(=O)c4c(C)n(CC(C)(C)O)n(-c5ccccc5)c4=O)nc3)ccnc2c1`
n

Which result was noted for this compound in the test: `O=C(CCc1ccc(O)cc1)c1c(O)cc(O)cc1O[C@@H]1O[C@H](CO)[C@H](O)[C@H](O)[C@H]1O`
n

Which result was noted for this compound in the test: `CC1(C)CCC[C@@]2(C)[C@@H]1CC[C@@]1(C)OC(=O)C[C@H]21`
n

Which result was noted for this compound in the test: `Oc1ccc(C2=Cc3ccc(O)cc3OC2)cc1`
n

Which result was noted for this compound in the test: `c1cc(-c2sc(-c3ccncc3)c(-c3ccncc3)c2-c2ccncc2)ccn1`
n

Which result was noted for this compound in the test: `COc1ccc2cccc(CCNC(C)=O)c2c1`
n

Which result was noted for this compound in the test: `CO[C@H]1C[C@@H]2CC[C@@H](C)[C@@](O)(O2)C(=O)C(=O)N2CCCC[C@@H]2C(=O)O[C@H]([C@@H](C)C[C@@H]2CC[C@H](O)[C@H](OC)C2)CC(=O)[C@H](C)C=C(C)[C@@H](O)[C@@H](OC)C(=O)[C@H](C)C[C@H](C)C=CC=CC=C1C`
n

Which result was noted for this compound in the test: O=C(O)C(O)Cc1ccc(O)c(O)c1 (configuration not stated)
n

Which result was noted for this compound in the test: CC(C(=O)O)c1ccc(-c2ccccc2)c(F)c1 (configuration not stated)
n

Which result was noted for this compound in the test: CC(=O)OC1C(C)OC(Oc2c(-c3ccc(O)cc3)oc3cc(O)cc(O)c3c2=O)C(O)C1OC(C)=O (configuration not stated)
n

---

Below is a list of entries, each paired with its recorded z-score value.
Assay: qHTS for identification of novel therapeutic agents for treatment of microphthalmiaassociated transcription factor (MiT) renal cell carcinoma (RCC) (AID 1963991);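 further: curves scaled with 100% = DMSO viability and 0% = empty wells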
Conditions: TFE3-RCC viability, CellTiter-Glo, 48 h; measured here: UOK145 Z-AUC; stronger effect = lower value
Records with an inconclusive call do not appear.
API doc: respond with a numeric literal and nothing else, no unit.

See these solved cases before continuing.
compound | z-score
CNC(=O)c1ccc2cc(C3(O)CCn4cncc43)ccc2c1 (stereo not given) | 0.539
CC1CCC(C(=O)N(c2cc(C#CC(C)(C)C)sc2C(=O)O)C2CCC(O)CC2)CC1 (stereo not given) | 0.196
CCC(=O)O[C@]1(C(=O)CO)CC[C@H]2[C@@H]3CCC4=CC(=O)CC[C@]4(C)[C@@H]3CC[C@@]21C | 0.464
CC=CC(=O)N(CC)c1ccccc1C | 0.523
NC1CCC(Nc2nc(Nc3ccc(C(=O)N4CCCCC4)cc3)c3ncn(-c4cccc(F)c4)c3n2)CC1 (stereo not given) | 0.657
CC(C)(C)c1cc(C(=O)O)c(NC(=O)Nc2ccc3[nH]ncc3c2)s1 | 0.16
COc1ccc(-n2c(C)c([N+](=O)[O-])c3ccc(O)cc32)cc1 | 0.643
CCOc1ccc(Nc2nc(-c3c(C)nc4ccccn34)cs2)cc1 | -1.17

Check the records and state z-score for `C[C@H]1[C@H](NC(=O)C(=NOC(C)(C)C(=O)O)c2csc(N)n2)C(=O)N1S(=O)(=O)O`
1.65

Check the records and state z-score for `O=C(CCc1ccc(O)cc1)c1c(O)cc(O)cc1O[C@@H]1O[C@H](CO)[C@H](O)[C@H](O)[C@H]1O`
-0.273
